# Tested on: aP2
# method: aP2 mRNA expression in adipocytes (real-time PCR)
# Type: cell-based, human
# experimental-conditions: adipocytes, 250 nM oligomeric compound, day nine post-transfection, relative to control (1.0); Table 16
In the oligonucleotide strings, read from the 5' end, every base follows the letter of its sugar. An asterisk marks phosphorothioate; unmarked linkages are phosphodiester. Other units and linkages are bracketed, terminal groups are in braces. A string of capitals states the bases alone. e = 2'-O-(2-methoxyethyl) (MOE); [5mC] = 5-methylcytosine
Listed next: entries and their corresponding AP2 (mRNA expression).

{"columns": ["substance", "AP2 (mRNA expression)"],
 "data": [
  ["327903 (antisense eA*eA*e[5mC]*eT*eA*eT*eA*e[5mC]*eA*eA*e[5mC]*e[5mC]*eT*eA*e[5mC]*eT*eA*e[5mC]*e[5mC]*eT*e[5mC]*eA) [compound 327903]", 0.92],
  ["327955 (antisense eG*e[5mC]*e[5mC]*e[5mC]*eT*eT*eT*e[5mC]*eA*eT*e[5mC]*eA*eT*eT*eG*e[5mC]*eA*e[5mC]*eT*eG) [compound 327955]", 0.74],
  ["327942 (antisense e[5mC]*e[5mC]*eA*eT*e[5mC]*eT*eT*eT*eA*e[5mC]*e[5mC]*eA*eG*eA*e[5mC]*eA*eG*eT*eG*eT*eT) [compound 327942]", 0.82]
]}

----------
# Test system: aP2
# method: aP2 mRNA expression in adipocytes (real-time PCR)
# Type: cell-based, human
# experimental-conditions: differentiating adipocytes transfected with oligomeric compound; Table 75
In the oligonucleotide strings, read from the 5' end, every base follows the letter of its sugar. An asterisk marks phosphorothioate; unmarked linkages are phosphodiester. Other units and linkages are bracketed, terminal groups are in braces. A string of capitals states the bases alone. e = 2'-O-(2-methoxyethyl) (MOE); [5mC] = 5-methylcytosine

{"columns": ["substance", "aP2 mRNA"],
 "data": [
  ["346914 (AUCUGCACUGUCAGCACUUUA; all 2'-MOE, all phosphorothioate, methylation of C and T or U not given here) [compound 346914]", "48 percentage of untreated control (UTC)"],
  ["341805 (antisense ACCCTTATCAGTTCTCCGTCCA; all 2'-MOE, all phosphorothioate, methylation of C not given here) [compound 341805]", "90 percentage of untreated control (UTC)"],
  ["340348 (antisense CTACCTGCACGAACAGCACTTT; all 2'-MOE, all phosphorothioate, methylation of C not given here) [compound 340348]", "68 percentage of untreated control (UTC)"],
  ["328131 (antisense eA*eT*eA*eT*eG*eT*e[5mC]*eA*eT*eA*eT*e[5mC]*eA*eA*eA*e[5mC]*eT*e[5mC]*e[5mC]*eT*eA) [compound 328131]", "63 percentage of untreated control (UTC)"],
  ["340354 (antisense UCAGACCGAGACAAGUGCAAUG; all 2'-MOE, all phosphorothioate, methylation of C and T or U not given here) [compound 340354]", "72 percentage of untreated control (UTC)"],
  ["328117 (antisense eT*e[5mC]*e[5mC]*eA*e[5mC]*eA*eA*eA*eG*e[5mC]*eT*eG*eA*eA*e[5mC]*eA*eT*eG*eT*e[5mC]*eT) [compound 328117]", "28 percentage of untreated control (UTC)"],
  ["328109 (antisense eA*eA*eA*eG*eA*eA*eG*eT*eA*eT*eA*eT*eG*e[5mC]*eA*eT*eA*eG*eG*eA*eA) [compound 328109]", "68 percentage of untreated control (UTC)"],
  ["328101 (antisense eA*eA*eA*e[5mC]*e[5mC]*e[5mC]*e[5mC]*eT*eA*eT*e[5mC]*eA*e[5mC]*eG*eA*eT*eT*eA*eG*e[5mC]*eA) [compound 328101]", "83 percentage of untreated control (UTC)"],
  ["328110 (antisense eG*eA*eT*eA*eA*eA*eG*e[5mC]*e[5mC]*eA*eA*eT*eA*eA*eA*e[5mC]*eT*eG*eT*e[5mC]*eA) [compound 328110]", "89 percentage of untreated control (UTC)"]
]}

----------
# System: Glut4
# method: Glut4 mRNA expression in adipocytes (real-time PCR)
# Type: cell-based, human
# experimental-conditions: differentiating adipocytes transfected with oligomeric compound; Table 75
In the oligonucleotide strings, read from the 5' end, every base follows the letter of its sugar. An asterisk marks phosphorothioate; unmarked linkages are phosphodiester. Other units and linkages are bracketed, terminal groups are in braces. A string of capitals states the bases alone. e = 2'-O-(2-methoxyethyl) (MOE); [5mC] = 5-methylcytosine
GLUT4 mRNA for assorted substances

{"columns": ["substance", "GLUT4 mRNA"],
 "data": [
  ["327963 (antisense eA*eA*e[5mC]*e[5mC]*eT*eA*eT*e[5mC]*e[5mC]*eT*eG*eA*eA*eT*eT*eA*e[5mC]*eT*eT*eG*eA*eA) [compound 327963]", "91 percentage of untreated control (UTC)"],
  ["327972 (antisense eA*e[5mC]*eT*e[5mC]*eA*e[5mC]*e[5mC]*eG*eA*e[5mC]*eA*eG*eG*eT*eT*eG*eA*eA*eT*eG*eT*eT) [compound 327972]", "75 percentage of untreated control (UTC)"],
  ["328128 (antisense eA*eG*eT*eA*eA*e[5mC]*eT*eT*e[5mC]*eT*eT*eG*e[5mC]*eA*eG*eT*eT*eG*eG*eA) [compound 328128]", "73 percentage of untreated control (UTC)"],
  ["328137 (eG*eT*eA*eA*eG*e[5mC]*eG*e[5mC]*eA*eG*e[5mC]*eT*e[5mC]*e[5mC]*eA*e[5mC]*eA*eG*eG*e[5mC]*eT; anti-miR) [compound 328137]", "29 percentage of untreated control (UTC)"],
  ["327946 (antisense eA*eG*eG*e[5mC]*eG*eA*eA*eG*eG*eA*eT*eG*eA*e[5mC]*eA*eA*eA*eG*eG*eG*eA*eA) [compound 327946]", "68 percentage of untreated control (UTC)"],
  ["328135 (eA*e[5mC]*e[5mC]*eG*eA*eA*e[5mC]*eA*eA*eA*eG*eT*e[5mC]*eT*eG*eA*e[5mC]*eA*eG*eG*eA; anti-miR) [compound 328135]", "19 percentage of untreated control (UTC)"],
  ["328131 (antisense eA*eT*eA*eT*eG*eT*e[5mC]*eA*eT*eA*eT*e[5mC]*eA*eA*eA*e[5mC]*eT*e[5mC]*e[5mC]*eT*eA) [compound 328131]", "56 percentage of untreated control (UTC)"],
  ["328108 (antisense eA*eA*eA*e[5mC]*eT*eT*eG*eT*eT*eA*eA*eT*eT*eG*eA*e[5mC]*eT*eG*eT*e[5mC]*eA) [compound 328108]", "65 percentage of untreated control (UTC)"],
  ["327917 (antisense eT*e[5mC]*eA*eA*e[5mC]*eA*eT*e[5mC]*eA*eG*eT*e[5mC]*eT*eG*eA*eT*eA*eA*eG*e[5mC]*eT*eA) [compound 327917]", "15 percentage of untreated control (UTC)"]
]}

----------
# Test system: PPARγ
# method: PPARγ mRNA expression in adipocytes (real-time PCR)
# Assay type: cell-based, human
# experimental-conditions: differentiating adipocytes transfected with oligomeric compound; Table 75
# Description: Expression of the four hallmark genes, HSL, aP2, Glut4, and PPARγ, is also measured in adipocytes transfected with oligomeric compounds of the invention. Cells are lysed on day nine post-transfection and total RNA is harvested. The amount of total RNA in each sample is determined using a Ribogreen Assay (Invitrogen Life Technologies, Carlsbad, Calif.). […]
In the oligonucleotide strings, read from the 5' end, every base follows the letter of its sugar. An asterisk marks phosphorothioate; unmarked linkages are phosphodiester. Other units and linkages are bracketed, terminal groups are in braces. A string of capitals states the bases alone. e = 2'-O-(2-methoxyethyl) (MOE); [5mC] = 5-methylcytosine
Listed here are substances together with their documented PPAR gamma mRNA.
reported-property: PPAR gamma mRNA

{"columns": ["substance", "result"],
 "data": [
  ["328102 (antisense eG*e[5mC]*e[5mC]*e[5mC]*e[5mC]*eA*eT*eT*eA*eA*eT*eA*eT*eT*eT*eT*eA*eA*e[5mC]*e[5mC]*eA) [compound 328102]", "94 percentage of untreated control (UTC)"],
  ["328111 (antisense eT*e[5mC]*e[5mC]*eG*eA*eG*eT*e[5mC]*eG*eG*eA*eG*eG*eA*eG*eG*eA*eG*eG*eA*eA) [compound 328111]", "65 percentage of untreated control (UTC)"],
  ["327968 (antisense e[5mC]*eA*eA*eT*eG*e[5mC]*eA*eA*e[5mC]*eA*eG*e[5mC]*eA*eA*eT*eG*e[5mC]*eA*e[5mC]) [compound 327968]", "79 percentage of untreated control (UTC)"],
  ["340360 (antisense GCAACUUAGUAAUGUGCAAUA; all 2'-MOE, all phosphorothioate, methylation of C and T or U not given here) [compound 340360]", "96 percentage of untreated control (UTC)"],
  ["327907 (antisense eA*eG*e[5mC]*e[5mC]*eT*eA*eT*e[5mC]*e[5mC]*eT*eG*eG*eA*eT*eT*eA*e[5mC]*eT*eT*eG*eA*eA) [compound 327907]", "49 percentage of untreated control (UTC)"],
  ["344342 (AUGCUUUUUGGGGUAAGGGCUU; anti-miR; all 2'-MOE, all phosphorothioate, methylation of C and T or U not given here) [compound 344342]", "83 percentage of untreated control (UTC)"],
  ["344341 (CACAUGGUUAGAUCAAGCACAA; anti-miR; all 2'-MOE, all phosphorothioate, methylation of C and T or U not given here) [compound 344341]", "49 percentage of untreated control (UTC)"]
]}
